Every entry's value here was drawn from patent US4482568A.

measured.target: Rat liver alcohol dehydrogenase (Rattus norvegicus)
Construct: Rat liver alcohol dehydrogenase was partially purified; from tissue; host or cells: rat liver
Sequence (P06757 2-376 limits assumed): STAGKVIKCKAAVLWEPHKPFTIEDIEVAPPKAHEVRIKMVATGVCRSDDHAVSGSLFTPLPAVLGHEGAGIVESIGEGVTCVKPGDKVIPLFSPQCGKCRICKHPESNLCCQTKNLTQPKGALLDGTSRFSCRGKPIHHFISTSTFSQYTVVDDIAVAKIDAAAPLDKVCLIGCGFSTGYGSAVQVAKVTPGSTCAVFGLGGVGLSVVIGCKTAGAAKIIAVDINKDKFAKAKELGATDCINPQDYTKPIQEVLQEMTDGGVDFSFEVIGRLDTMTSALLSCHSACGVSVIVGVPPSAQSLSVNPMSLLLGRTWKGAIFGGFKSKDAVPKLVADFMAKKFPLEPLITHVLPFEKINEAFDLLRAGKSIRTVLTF
test.method.notes: Inhibition of rat liver alcohol dehydrogenase in vitro (Kii against varied ethanol)
Format: biochemical
condition.label: partially purified enzyme, pH 7.3, 37° C., ethanol varied as substrate; read-out: Liver Alcohol Dehydrogenase, In Vitro, Kii, Rat
observation.type: Ki (µM)

A. CC1CC[S+]([O-])C1 (centres unmarked) [3-Methyltetramethylene sulfoxide, 3-Methylthiolane-1-oxide]
B. CCCCC1CC[S+]([O-])C1 (centres unmarked) [3-Butyltetramethylene sulfoxide, 3-butylthiolane-1-oxide]
Challenge: Select the item whose Ki value is smaller, choosing between A and B . // output: label of the selected item
Response given: B
(B: 1.5 µM, A: 18 µM)
